- protocolText: A549 cell viability effects, profiling panel, calcein-AM fluorescence, 48 h, basal (AID 1162); also: test concentration not given here
- experimentalSetup: higher = more signal
quantityMeasured: z-score

Check out these entries, answers already filled in.
In [3]: df
Out[3]:
                                   compound  reportedresult
0  C#CCCCON=C1C[C@@H](O)[C@@H](O)[C@@H]2[C@@H]3C(=O)N(Cc4ccccc4)C(=O)[C@@H]3CC[C@H]12           0.416
1  C#CCCCON=C1C[C@@H](O)[C@@H](O)[C@@H]2[C@@H]3C(=O)N(CCC(=O)OCC)C(=O)[C@@H]3CC[C@@H]12          -0.284
2  CCOC(=O)NN=C1C[C@@H](O)[C@@H](O)[C@@H]2[C@@H]3C(=O)N(C[C@@H]4CCCO4)C(=O)[C@@H]3CC[C@@H]12          0.0693
3  CCCNC(=O)OC[C@H]1O[C@H](CCON=C[C@@H](OC)[C@H](C)C=CCC(=O)OC)C=C[C@@H]1Oc1ccc(OC)cc1          0.0666
4  C#CCCCON=C1C[C@@H](O)[C@@H](O)[C@@H]2[C@@H]3C(=O)N([C@@H](C)c4ccccc4)C(=O)[C@@H]3CC[C@H]12          -0.858
5  C=C(/C(=C/C[C@H](OC(=O)c1ccncc1)c1ccc(OCCO)cc1)c1cnc2ccccc2c1)C(C)C            1.31

Can you share its z-score? I mean this compound: COc1ccc([Si](C)(C)[C@H]2[C@H](CC(=O)N3CCC[C@H]3CO)O[C@@]3(C(=O)N(Cc4cccc(N5C(=O)COc6ccccc65)c4)c4ccccc43)[C@@H]2C)cc1 0.819

Can you share its z-score? I mean this compound: CC1CC/C=C\[C@H]2OC34C=CCN(Cn5nnc6ccccc65)C(=O)[C@H]3N(CCO)C(=O)[C@@H]4C2C(=O)O1 (stereo partly drawn) -0.338

Can you share its z-score? I mean this compound: CCN1C(=O)[C@H]2[C@H]3[C@H](O)[C@H](O)CC(=NO[C@@H]4O[C@H](CO)[C@@H](O)[C@H](O)[C@H]4O)[C@@H]3CC[C@H]2C1=O 1.05

Can you share its z-score? I mean this compound: CO[C@H]1COC(=O)[C@@H]2CCCN2C(=O)[C@@H](C)COC(=O)CC=C[C@@H]1C 0.12

* * *

The following compounds are listed with their measured z-score values.
- systemTested: NADPH oxidase 4 (Homo sapiens)
- protocolText: NOX4-dependent H2O2 signal modulators, primary screen, NOX inhibitor project, cell-based, HEK293-NOX4, tetracycline-induced, Amplex Red fluorescence (AID 1160)
- experimentalSetup: 45 min, higher = more signal, called active from +8 up or from −8 down
Enter the number alone.

Check out these entries, answers already filled in.
>>> print(df.to_string())
                             chemicalstring                    systemtested  reportedresult
0  CC(CCC(=O)OC[C@H]1O[C@H](C#Cc2ccccc2)C=C[C@@H]1Oc1ccc(C)cc1)=NO[C@@H](C)c1cn([C@H](CO)Cc2ccccc2)nn1  NADPH oxidase 4 (Homo sapiens)          -0.298
1  CC(C)[C@@H](OCc1ccccc1)[C@H](C)C=NO[C@H](C)c1cn([C@H](CO)Cc2ccccc2)nn1  NADPH oxidase 4 (Homo sapiens)          -0.147
2  COCCCNC(=O)[C@@]1(C)c2ccccc2C(=O)N(Cc2ccc(OC(F)(F)F)cc2)[C@H]1c1ccc(CO)cc1  NADPH oxidase 4 (Homo sapiens)            1.18
3  COCCCNC(=O)[C@@]1(Sc2ccc(C)cc2)CC(=O)N(Cc2ccccc2)[C@@H]1c1ccc(CO)cc1I  NADPH oxidase 4 (Homo sapiens)          -0.666

Can you share its z-score? I mean this compound: CCCNC(=O)OC[C@H]1O[C@H](CCON=CC[C@@H]2C=C[C@H](OC(C)=O)[C@@H](COC(C)=O)O2)C=C[C@@H]1Oc1ccc(OC)cc1 0.143

Data credit: PubChem BioAssay
